target: rat GPR14 (U-II receptor) (Rattus norvegicus); assay: Rat UII Calcium Mobilization FLIPR Assay; conditions: CHO cells transfected with rat GPR14; antagonist activity after 5 min incubation vs agonist (Ac)-CFWK(2-NaI)C-NH2 at 1 nM
Sequence (P49684 whole entry): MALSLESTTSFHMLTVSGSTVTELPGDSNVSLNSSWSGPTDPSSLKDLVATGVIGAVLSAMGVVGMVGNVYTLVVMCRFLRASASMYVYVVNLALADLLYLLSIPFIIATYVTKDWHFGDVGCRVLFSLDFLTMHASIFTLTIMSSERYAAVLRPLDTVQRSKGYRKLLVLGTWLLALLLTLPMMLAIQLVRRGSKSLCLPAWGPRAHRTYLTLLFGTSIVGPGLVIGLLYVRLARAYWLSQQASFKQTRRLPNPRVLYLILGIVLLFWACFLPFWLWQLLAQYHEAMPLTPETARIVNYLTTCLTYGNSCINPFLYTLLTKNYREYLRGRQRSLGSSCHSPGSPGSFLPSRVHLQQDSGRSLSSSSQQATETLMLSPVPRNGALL
The threshold is 30 nM. Values of IC50 beneath it are tagged yes (1); values meeting or exceeding it are tagged no (0).

- structure string: "CCN1CCN(c2cccc3c2CN([C@H](CCCNS(=O)(=O)O)c2ccc(OC)c(OC)c2)C3=O)CC1"
  qualitative label: "no (0)"
- structure string: "CCN1CCN(c2cccc3c2CN([C@H](CCCOCc2cccc(F)c2)c2ccc(OC)c(OC)c2)C3=O)CC1"
  qualitative label: "no (0)"
- structure string: "CCN1CCN(c2cccc3c2CN([C@H](CCCN(C)S(=O)(=O)c2cccs2)c2ccc(OC)c(OC)c2)C3=O)CC1"
  qualitative label: "yes (1)"
- structure string: "CCc1ccnc(NCCC[C@H](c2ccc(OC)c(OC)c2)N2Cc3c(cccc3N3CCN(CC)CC3)C2=O)n1"
  qualitative label: "no (0)"
- structure string: "CCN1CCN(c2cccc3c2CN([C@H](CCCN(Cc2ccc(F)cc2)C(C)=O)c2ccc(OC)c(OC)c2)C3=O)CC1"
  qualitative label: "yes (1)"
- structure string: "CCN1CCN(c2cccc3c2CN([C@H](CCCNCc2ccccc2)c2ccc(OC)c(OC)c2)C3=O)CC1"
  qualitative label: "yes (1)"
- structure string: "CCN1CCN(c2cccc3c2CN([C@H](CCCNC(=O)C(C)(C)C)c2ccc(OC)c(OC)c2)C3=O)CC1"
  qualitative label: "no (0)"

----------
IC50 listing for selected compounds.
biological target: Human UII (U-II receptor) in 6D9 human rhabdomyosarcoma cells (Homo sapiens); construct: 6D9: isolated by dilution subcloning of RMS13 cells, ATCC® Number: CRL-2061; host or cells: 6D9 human rhabdomyosarcoma cells (subclone of RMS13); experiment: Human UII Calcium Mobilization Assay; assay type: cell-based; conditions: 6D9 human rhabdomyosarcoma cells, FLIPR TETRA, average; read-out: Human UII Ca+ Mobilization Average IC50
Sequence (Q9UKP6 whole entry): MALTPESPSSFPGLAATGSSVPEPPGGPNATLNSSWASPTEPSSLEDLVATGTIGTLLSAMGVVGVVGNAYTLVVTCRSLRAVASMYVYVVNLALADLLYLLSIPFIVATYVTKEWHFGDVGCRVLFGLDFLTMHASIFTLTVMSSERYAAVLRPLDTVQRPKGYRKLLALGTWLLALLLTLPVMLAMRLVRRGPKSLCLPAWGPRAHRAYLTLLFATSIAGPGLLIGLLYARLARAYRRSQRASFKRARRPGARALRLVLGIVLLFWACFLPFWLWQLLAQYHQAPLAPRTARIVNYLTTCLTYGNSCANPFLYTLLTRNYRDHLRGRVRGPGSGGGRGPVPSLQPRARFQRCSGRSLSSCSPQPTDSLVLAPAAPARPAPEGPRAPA

- compound: "COc1ccc([C@@H](CCCOCc2ccccc2)N2Cc3c(cccc3N3CCNCC3)C2=O)cc1OC"
  display unit: "µM"
  IC50: 0.45
- compound: "CCN1CCN(c2cccc3c2CN([C@H](CCCNS(=O)(=O)O)c2ccc(OC)c(OC)c2)C3=O)CC1"
  display unit: "µM"
  IC50: 1.79
- compound: "CCN1CCN(c2cccc3c2CN([C@H](CCCNC(=O)C(C)(C)C)c2ccc(OC)c(OC)c2)C3=O)CC1"
  display unit: "µM"
  IC50: 0.2
- compound: "CCN1CCN(c2cccc3c2CN([C@H](CCCN2CCc4ccccc4C2)c2ccc(OC)c(OC)c2)C3=O)CC1"
  display unit: "µM"
  IC50: 0.069
- compound: "COc1ccc([C@@H](CCCSc2ccccc2)N2Cc3c(cccc3N3CCNCC3)C2=O)cc1OC"
  display unit: "µM"
  IC50: 1.15
- compound: "CCN1CCN(c2cccc3c2CN([C@H](CCCN(Cc2ccc(F)cc2)C2CC2)c2ccc(OC)c(OC)c2)C3=O)CC1"
  display unit: "µM"
  IC50: 0.168
- compound: "CCN1CCN(c2cccc3c2CN([C@H](CCCNS(=O)(=O)c2cn(C)c(C)n2)c2ccc(OC)c(OC)c2)C3=O)CC1"
  display unit: "µM"
  IC50: 0.051
- compound: "CCN1CCN(c2cccc3c2CN([C@H](CCCNc2nccc(C(F)(F)F)n2)c2ccc(OC)c(OC)c2)C3=O)CC1"
  display unit: "µM"
  IC50: 0.187
- compound: "CCN1CCN(c2cccc3c2CN([C@H](CCCNC(=O)C2CCC2)c2ccc(OC)c(OC)c2)C3=O)CC1"
  display unit: "µM"
  IC50: 0.311
- compound: "CCN1CCN(c2cccc3c2CN([C@H](CCCn2cncn2)c2ccc(OC)c(OC)c2)C3=O)CC1"
  display unit: "µM"
  IC50: 2.11
- compound: "CCN1CCN(c2cccc3c2CN([C@H](CCCn2ccnc2)c2ccc(OC)c(OC)c2)C3=O)CC1"
  display unit: "µM"
  IC50: 2.04
- compound: "COc1ccc([C@@H](CCCN(C)S(=O)(=O)c2cccs2)N2Cc3c(cccc3N3CCNCC3)C2=O)cc1OC"
  display unit: "µM"
  IC50: 0.409
- compound: "CCN1CCN(c2cccc3c2CN([C@H](CCCNCC(C)(C)C)c2ccc(OC)c(OC)c2)C3=O)CC1"
  display unit: "µM"
  IC50: 2.59
- compound: "CCN1CCN(c2cccc3c2CN(C(c2cccc(NCc4ccccc4)c2)c2ccc(OC)c(OC)c2)C3=O)CC1 (stereo not drawn)"
  display unit: "µM"
  IC50: 2.38
- compound: "CCN1CCN(c2cccc3c2CN([C@H](CCCSc2cccc[n+]2[O-])c2ccc(OC)c(OC)c2)C3=O)CC1"
  display unit: "µM"
  IC50: 0.602
